PROTOCOL_NOTES: Retardation factor of the compound using n-BuOH-AcOH-water at ratio of 4:1:5 as solvent system by thin layer chromatography
Assay type: physicochemical
CONDITION_LABEL: buffer
Non-standard residues stand in square brackets, D forms with d. Residues, ends and D or L forms follow the SMILES beside them. Sar = CNCC(=O)O
Each entry below lists one item and its recorded Rf value.

COMPOUND: CC[C@H](C)[C@H](NC(=O)[C@H](Cc1ccc(O)cc1)NC(=O)[C@@H](NC(=O)[C@H](CCCNC(=N)N)NC(=O)CNC)C(C)C)C(=O)N[C@@H](Cc1cnc[nH]1)C(=O)N1CCC[C@H]1C(=O)NC(C)(C)C(=O)O
Rf: 0.46
//
COMPOUND: CC[C@H](C)[C@H](NC(=O)[C@H](Cc1ccc(O)cc1)NC(=O)[C@@H](NC(=O)[C@H](CCCNC(=N)N)NC(=O)C(C)(C)N)C(C)C)C(=O)N[C@@H](Cc1cnc[nH]1)C(=O)N1CCC[C@H]1C(=O)NC(C)(C)C(=O)O
Rf: 0.47
//
COMPOUND: CC[C@H](C)[C@H](NC(=O)[C@H](Cc1ccc(O)cc1)NC(=O)[C@@H](NC(=O)CN(C)C(=O)CNC)C(C)C)C(=O)N[C@@H](Cc1c[nH]cn1)C(=O)N1CCC[C@H]1C(=O)N[C@H](C(=O)O)[C@@H](C)O (H-[Sar][Sar]VYIHPT-OH)
Rf: 0.46
//
COMPOUND: CC[C@H](C)[C@H](NC(=O)[C@@H]1CCCN1C(=O)[C@H](Cc1c[nH]cn1)NC(=O)[C@@H](NC(=O)[C@H](Cc1ccc(O)cc1)NC(=O)[C@@H](NC(=O)[C@H](CCCN=C(N)N)NC(=O)CNC)C(C)C)[C@@H](C)OC)C(=O)O (H-[Sar]RVYT(Me)HPI-OH)
Rf: 0.35
//
COMPOUND: CNCC(=O)N[C@@H](CCCNC(=N)N)C(=O)N[C@H](C(=O)N[C@@H](Cc1ccc(O)cc1)C(=O)N[C@H](C(=O)N[C@@H](Cc1cnc[nH]1)C(=O)N1CCC[C@H]1C(=O)N[C@H](C(=O)O)[C@@H](C)OC)[C@@H](C)OC)C(C)C
Rf: 0.28
